The following substances are shown together with reported Occurences values.
Biological target: FAP (Homo sapiens, UniProt Q12884)
Construct: the extracellular domain of FAP was cloned with a His-6 tag; made in house
Sequence (Q12884 26-760 limits assumed): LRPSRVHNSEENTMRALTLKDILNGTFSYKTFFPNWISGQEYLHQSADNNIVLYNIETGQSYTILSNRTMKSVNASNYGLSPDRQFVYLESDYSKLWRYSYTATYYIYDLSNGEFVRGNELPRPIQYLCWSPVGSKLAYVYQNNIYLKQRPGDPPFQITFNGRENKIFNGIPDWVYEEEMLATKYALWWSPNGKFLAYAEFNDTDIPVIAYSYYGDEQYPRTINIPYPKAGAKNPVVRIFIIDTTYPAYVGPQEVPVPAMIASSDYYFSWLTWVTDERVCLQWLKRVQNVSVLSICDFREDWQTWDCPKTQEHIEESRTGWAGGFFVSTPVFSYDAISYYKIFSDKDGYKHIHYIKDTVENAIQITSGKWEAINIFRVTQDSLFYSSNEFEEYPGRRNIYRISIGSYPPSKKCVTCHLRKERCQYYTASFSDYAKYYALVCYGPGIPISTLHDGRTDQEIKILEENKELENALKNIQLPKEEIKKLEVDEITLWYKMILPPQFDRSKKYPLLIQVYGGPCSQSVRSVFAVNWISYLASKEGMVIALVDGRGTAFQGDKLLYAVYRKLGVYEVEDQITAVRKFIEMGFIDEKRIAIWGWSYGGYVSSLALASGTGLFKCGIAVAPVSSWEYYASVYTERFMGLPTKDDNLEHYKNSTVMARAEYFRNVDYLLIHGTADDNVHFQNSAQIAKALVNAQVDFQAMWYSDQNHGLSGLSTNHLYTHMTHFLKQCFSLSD
Assay: LC-MS/MS cleavage map of FAP digest of 100 kDa recombinant human gelatin
Assay type: biochemical
Conditions: 100 kDa gelatin digest

# SUBSTANCE, SYSTEM, Occurences
rows = [
    ("A.PGDKGESGP.S: FAP cleavage fragment, 100 kDa recombinant human gelatin", "FAP (Homo sapiens, UniProt Q12884)", 2),
    ("P.AGPPGFPGAVGAKGEAGP.Q: FAP cleavage fragment, 100 kDa recombinant human gelatin", "FAP (Homo sapiens, UniProt Q12884)", 2),
    ("P.AGKDGEAGAQGPPGP.A: FAP cleavage fragment of 100 kDa and 8.5 kDa recombinant human gelatin, MH+ 1308.62 (PAGKDGEAGAQGPPGPA)", "FAP (Homo sapiens, UniProt Q12884)", 2),
    ("P.AGEKGSPGADGPAGAPGTPGP.Q: FAP cleavage fragment, 100 kDa recombinant human gelatin", "FAP (Homo sapiens, UniProt Q12884)", 7),
    ("P.GPPGAPGP.Q: FAP cleavage fragment, 100 kDa recombinant human gelatin", "FAP (Homo sapiens, UniProt Q12884)", 1),
    ("P.VGPPGPPGPP.G: FAP cleavage fragment, 100 kDa recombinant human gelatin", "FAP (Homo sapiens, UniProt Q12884)", 3),
    ("P.PGAPGAPGAPGPVGPAGKSGDRGETGP.A: FAP cleavage fragment, 100 kDa recombinant human gelatin", "FAP (Homo sapiens, UniProt Q12884)", 2),
    ("A.GPPGAPGAPGAPGP.V: FAP cleavage fragment, 100 kDa recombinant human gelatin", "FAP (Homo sapiens, UniProt Q12884)", 1),
    ("P.GGPPGPKGNSGEPGAPGSKGD.T: FAP cleavage fragment, 100 kDa recombinant human gelatin", "FAP (Homo sapiens, UniProt Q12884)", 1),
    ("G.PSGEPGKQGPSGASGERGPPGP.M: FAP cleavage fragment, 100 kDa recombinant human gelatin", "FAP (Homo sapiens, UniProt Q12884)", 1),
    ("P.AGQDGRPGPPGPPGARGQAG.V: FAP cleavage fragment of 100 kDa and 8.5 kDa recombinant human gelatin, MH+ 1799.89", "FAP (Homo sapiens, UniProt Q12884)", 1),
    ("P.KGAAGEPGKAGERGVPGPPGAVGP.A: FAP cleavage fragment of 100 kDa and 8.5 kDa recombinant human gelatin, MH+ 2113.12", "FAP (Homo sapiens, UniProt Q12884)", 5),
]

The reported measurements were obtained from patent US20140087991A1.
